target: High affinity cGMP-specific 3',5'-cyclic phosphodiesterase 9A (Mus musculus, UniProt O70628); experiment: Inhibition of mouse PDE9A expressed in recombinant CHO cells coexpressing soluble guanylate cyclase incubated for 6 mins by [3H]-cGMP scintillation proximity assay
Sequence (O70628 whole entry): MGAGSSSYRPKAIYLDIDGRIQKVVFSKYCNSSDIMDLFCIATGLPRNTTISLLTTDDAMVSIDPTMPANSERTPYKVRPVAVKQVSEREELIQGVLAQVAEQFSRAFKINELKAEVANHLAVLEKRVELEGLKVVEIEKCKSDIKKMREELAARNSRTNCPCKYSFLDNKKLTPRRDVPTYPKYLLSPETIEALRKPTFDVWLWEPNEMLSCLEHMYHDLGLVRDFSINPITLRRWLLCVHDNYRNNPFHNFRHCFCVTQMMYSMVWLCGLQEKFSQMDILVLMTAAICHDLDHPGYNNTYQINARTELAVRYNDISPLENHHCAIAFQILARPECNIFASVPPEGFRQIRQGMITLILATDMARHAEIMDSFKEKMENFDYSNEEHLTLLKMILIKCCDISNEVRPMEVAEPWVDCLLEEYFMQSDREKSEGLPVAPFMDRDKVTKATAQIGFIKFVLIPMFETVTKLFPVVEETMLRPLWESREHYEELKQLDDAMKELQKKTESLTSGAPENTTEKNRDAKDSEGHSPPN
result-type: pEC50
// field semantics: pEC50 = negative decimal log of concentration (mol/L)

Please look up its pEC50: CCCC1CNCc2c1[nH]c(=O)c(C#N)c2N1CCC2(CC1)CC2.Cl (stereo in doubt; form 2) 6.00

----------
# Ratio IC50 annotations
species: Homo sapiens; assay: Selectivity index, ratio of IC50 for full length human PDE10A to IC50 for full length human PDE9A

molecule	Ratio IC50
CCCC1CNCc2c1[nH]c(=O)c(C#N)c2N1CCC2(CC1)CC2 (stereo in doubt; form 2)	> 650

Please look up its Ratio IC50: CCCC1CNCc2c1[nH]c(=O)c(C#N)c2-c1ccc(C)cc1.Cl (centres undefined) > 100

Could you do the same for CCCC1CCCc2c1[nH]c(=O)c(C#N)c2-c1ccc(C)cc1 (centres undefined) , please? 69

Could you do the same for CCCC1CNCc2c1[nH]c(=O)c(C#N)c2N1CCC(C)(C)CC1.Cl (centres undefined) , please? > 100
